- targetOrSystem: G3BP1 NTF2 (1-139) F15W (human, UniProt Q13283 1-139, F15W)
- Sequence (Q13283 1-139 F15W): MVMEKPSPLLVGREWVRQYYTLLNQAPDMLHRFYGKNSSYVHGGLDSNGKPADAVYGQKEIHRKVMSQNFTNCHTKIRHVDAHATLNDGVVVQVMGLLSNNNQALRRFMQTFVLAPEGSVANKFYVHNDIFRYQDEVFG
- protocolSummary: fluorescence polarisation
Where no end group is shown, it is not given here. Ahx = NCCCCCC(=O)O
recordedEndpoint: Kd (µM)
Write the value in µM as a bare number.

Challenge: Query: Kd; subject: {fluorescein-Ahx}-YNFIQDSMLDFE [Caprin1-derived dodecamer reporter peptide F*-YNFIQDSMLDFE]
Response given: 9.3
